# TESTED TARGET: PRKD1 (human)
# PROCEDURE DETAILS: KINOMEscan competition binding
# EXPERIMENTAL PARAMETERS: compound 10.0 µM
What kinase still bound, per cent of control was measured for each of the following?
One number for each entry, in %.

Reference set, count: 5
INSERT INTO measurements (molecule, measure, unit_text, recorded_result) VALUES
  ('Cc1ccc(NC(=O)c2cccc(C(C)(C)C#N)c2)cc1Nc1ccc2ncn(C)c(=O)c2c1', 'kinase still bound, per cent of control', '%', 67),
  ('C=CC(=O)Nc1cccc(Oc2nc(Nc3ccc(N4CCN(C)CC4)cc3OC)ncc2Cl)c1', 'kinase still bound, per cent of control', '%', 12),
  ('CN(C)C/C=C/C(=O)Nc1cccc(Nc2ncc3c(n2)N(C)c2ccccc2C(=O)N3C)c1', 'kinase still bound, per cent of control', '%', 15),
  ('Cc1cc([C@@H](C)Nc2ccccc2C(=O)O)c2nc(N3CCOCC3)cc(=O)n2c1', 'kinase still bound, per cent of control', '%', 89),
  ('O=C1Nc2ccc(I)cc2/C1=C/c1cc(Br)c(O)c(Br)c1', 'kinase still bound, per cent of control', '%', 100);

Each of the following entries comes with a recorded value; kindly state kinase still bound, per cent of control for each.
1. Cc1ccc2nc(NCCN)c3ncc(C)n3c2c1
2. CCCS(=O)(=O)Nc1ccc(F)c(C(=O)c2c[nH]c3ncc(-c4ccc(Cl)cc4)cc23)c1F
3. CCN1CCN(Cc2ccc(Nc3ncc4c(n3)N(C)c3ccccc3C(=O)N4C)cc2C(F)(F)F)CC1

Reply:
1. 47
2. 8.2
3. 17

---

What kinase still bound, per cent of control was measured for each of the following?
# TESTED TARGET: STK35 (human) (UniProt Q8TDR2)
# Sequence (Q8TDR2 whole entry, looked up): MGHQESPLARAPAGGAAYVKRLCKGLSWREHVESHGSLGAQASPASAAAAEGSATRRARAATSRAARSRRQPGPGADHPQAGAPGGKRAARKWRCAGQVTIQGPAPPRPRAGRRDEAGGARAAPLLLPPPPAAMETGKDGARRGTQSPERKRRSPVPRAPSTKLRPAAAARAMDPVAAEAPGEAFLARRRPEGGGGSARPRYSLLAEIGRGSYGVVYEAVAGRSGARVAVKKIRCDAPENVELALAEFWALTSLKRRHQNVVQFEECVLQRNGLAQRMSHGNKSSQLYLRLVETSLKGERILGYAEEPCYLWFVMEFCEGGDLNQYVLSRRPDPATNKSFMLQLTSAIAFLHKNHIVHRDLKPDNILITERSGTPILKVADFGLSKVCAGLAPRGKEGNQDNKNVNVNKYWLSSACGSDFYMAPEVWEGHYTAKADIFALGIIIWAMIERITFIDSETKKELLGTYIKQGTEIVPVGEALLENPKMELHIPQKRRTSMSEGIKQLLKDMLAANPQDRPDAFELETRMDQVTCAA
# PROCEDURE DETAILS: KINOMEscan competition binding
# EXPERIMENTAL PARAMETERS: compound 10.0 µM
Give bare numbers, in %.

Reference set, count: 4
INSERT INTO results (compound, recorded_result) VALUES
  ('Nc1ccc(-c2ccc3ncc4ccc(=O)n(-c5cccc(C(F)(F)F)c5)c4c3c2)cn1', 92),
  ('C[C@@H](Oc1cc(-n2cnc3ccc(CN4CCN(C)CC4)cc32)sc1C(N)=O)c1ccccc1C(F)(F)F', 76),
  ('COc1cc(C(=O)NC2CCN(C)CC2)ccc1Nc1ncc2c(n1)N(C1CCCC1)C(C)CC(=O)N2C (stereo not given)', 100),
  ('O=C(NOC[C@H](O)CO)c1ccc(F)c(F)c1Nc1ccc(I)cc1F', 83);

Read the next record carefully.
Ask: Read off the recorded kinase still bound, per cent of control for Cn1c(=O)n(-c2ccc(C(C)(C)C#N)cc2)c2c3cc(-c4cnc5ccccc5c4)ccc3ncc21
Reply: 100

---

# TESTED TARGET: STK32B (human)
# PROCEDURE DETAILS: KINOMEscan competition binding
# EXPERIMENTAL PARAMETERS: compound 10.0 µM
What kinase still bound, per cent of control was measured for each of the following?
Your answer should be a number followed by the unit of measure.

INSERT INTO assay_data (compound, measure, recorded_result) VALUES
  ('CCN1CCN(Cc2ccc(Nc3ncc4c(n3)N(C)c3ccccc3C(=O)N4C)cc2C(F)(F)F)CC1', 'kinase still bound, per cent of control', '100%'),
  ('CN(C)C/C=C/C(=O)Nc1cccc(Nc2ncc3c(n2)N(C)c2ccccc2C(=O)N3C)c1', 'kinase still bound, per cent of control', '100%'),
  ('CCOc1cc2ncc(C#N)c(Nc3ccc(OCc4ccccn4)c(Cl)c3)c2cc1NC(=O)/C=C/CN(C)C', 'kinase still bound, per cent of control', '73%'),
  ('N#Cc1c(NC(=O)c2cccc3ccccc23)sc2c1CCCC2', 'kinase still bound, per cent of control', '83%'),
  ('CCCS(=O)(=O)Nc1ccc(F)c(C(=O)c2c[nH]c3ncc(-c4ccc(Cl)cc4)cc23)c1F', 'kinase still bound, per cent of control', '100%'),
  ('O=C1Nc2ccc(I)cc2/C1=C/c1cc(Br)c(O)c(Br)c1', 'kinase still bound, per cent of control', '100%'),
  ('Cc1ccc2nc(NCCN)c3ncc(C)n3c2c1', 'kinase still bound, per cent of control', '100%'),
  ('Cc1ccc(NC(=O)c2cccc(C(C)(C)C#N)c2)cc1Nc1ccc2ncn(C)c(=O)c2c1', 'kinase still bound, per cent of control', '100%'),
  ('Cn1c(=O)n(-c2ccc(C(C)(C)C#N)cc2)c2c3cc(-c4cnc5ccccc5c4)ccc3ncc21', 'kinase still bound, per cent of control', '100%'),
  ('COc1cc(C(=O)NC2CCN(C)CC2)ccc1Nc1ncc2c(n1)N(C1CCCC1)CCC(=O)N2C(C)C', 'kinase still bound, per cent of control', '100%');

Each of the following entries comes with a recorded value; kindly state kinase still bound, per cent of control for each.
1. CCC(=O)N1CCN(c2ccc(-n3c(=O)ccc4cnc5ccc(-c6cnc7ccccc7c6)cc5c43)cc2C(F)(F)F)CC1
2. Cc1cc([C@@H](C)Nc2ccccc2C(=O)O)c2nc(N3CCOCC3)cc(=O)n2c1
3. Nc1ccc(-c2ccc3ncc4ccc(=O)n(-c5cccc(C(F)(F)F)c5)c4c3c2)cn1
4. OCCCNc1cc(-c2ccnc(Nc3cccc(Cl)c3)n2)ccn1
5. C[C@@H](Oc1cc(-n2cnc3ccc(CN4CCN(C)CC4)cc32)sc1C(N)=O)c1ccccc1C(F)(F)F

Reply:
1: 87%; 2: 71%; 3: 100%; 4: 100%; 5: 100%

Each of the following entries comes with a recorded value; kindly state kinase still bound, per cent of control for each.
1. COc1cc(C(=O)NC2CCN(C)CC2)ccc1Nc1ncc2c(n1)N(C1CCCC1)C(C)CC(=O)N2C (centres undefined)
2. CC[C@@H]1C(=O)N(C)c2cnc(Nc3ccc(C(=O)NC4CCN(C)CC4)cc3OC)nc2N1C1CCCC1
3. O=C(NC1CC1)c1cccc(-c2ccc3c(NC(=O)C4CC4)n[nH]c3c2)c1
4. Cc1ccc(C(=O)Nc2cccc(C(F)(F)F)c2)cc1Nc1cncc(C(N)=O)c1
5. COc1cc(N2CCN(C)CC2)ccc1Nc1nc(N)c(C(=O)c2c(Cl)cccc2Cl)s1
6. C=CC(=O)Nc1cccc(Oc2nc(Nc3ccc(N4CCN(C)CC4)cc3OC)ncc2Cl)c1
7. O=C(O)c1ccc(Nc2ncc3c(n2)-c2ccc(Cl)cc2C(c2c(F)cccc2F)=NC3)cc1
8. C=CC(=O)Nc1cccc(Nc2nc(N[C@H]3CC[C@H](N(C)C)CC3)nc3c2ncn3C(C)C)c1

Reply:
1: 100%; 2: 100%; 3: 100%; 4: 100%; 5: 76%; 6: 100%; 7: 38%; 8: 100%

Ask: Give kinase still bound, per cent of control for this entry on STK32B (human): C=CC(=O)Nc1cc(NC(=O)c2ccc(C)c(NC(=O)c3ccno3)c2)cc(C(F)(F)F)c1
Reply: 100%

---

# TESTED TARGET: LIMK2 (human)
# PROCEDURE DETAILS: KINOMEscan competition binding
# EXPERIMENTAL PARAMETERS: compound 10.0 µM
MEASURE: kinase still bound, per cent of control (%)
Give bare numbers, in %.

INSERT INTO assay_data (compound, recorded_result) VALUES
  ('OCCCNc1cc(-c2ccnc(Nc3cccc(Cl)c3)n2)ccn1', 100),
  ('Nc1ccc(-c2ccc3ncc4ccc(=O)n(-c5cccc(C(F)(F)F)c5)c4c3c2)cn1', 89),
  ('Cc1cc([C@@H](C)Nc2ccccc2C(=O)O)c2nc(N3CCOCC3)cc(=O)n2c1', 100),
  ('O=C1Nc2ccc(I)cc2/C1=C/c1cc(Br)c(O)c(Br)c1', 77),
  ('COc1cc(N2CCN(C)CC2)ccc1Nc1nc(N)c(C(=O)c2c(Cl)cccc2Cl)s1', 94),
  ('O=C(O)c1ccc(Nc2ncc3c(n2)-c2ccc(Cl)cc2C(c2c(F)cccc2F)=NC3)cc1', 94),
  ('CCCS(=O)(=O)Nc1ccc(F)c(C(=O)c2c[nH]c3ncc(-c4ccc(Cl)cc4)cc23)c1F', 24),
  ('CN(C)C/C=C/C(=O)Nc1cccc(Nc2ncc3c(n2)N(C)c2ccccc2C(=O)N3C)c1', 94);

Each of the following entries comes with a recorded value; kindly state kinase still bound, per cent of control for each.
1. Cc1ccc(NC(=O)c2cccc(C(C)(C)C#N)c2)cc1Nc1ccc2ncn(C)c(=O)c2c1
2. O=C(NC1CC1)c1cccc(-c2ccc3c(NC(=O)C4CC4)n[nH]c3c2)c1
3. COc1cc(C(=O)NC2CCN(C)CC2)ccc1Nc1ncc2c(n1)N(C1CCCC1)CCC(=O)N2C(C)C

Reply:
95
98
100

---

# TESTED TARGET: PLK3 (human) (UniProt Q9H4B4)
# Sequence (Q9H4B4 whole entry, looked up): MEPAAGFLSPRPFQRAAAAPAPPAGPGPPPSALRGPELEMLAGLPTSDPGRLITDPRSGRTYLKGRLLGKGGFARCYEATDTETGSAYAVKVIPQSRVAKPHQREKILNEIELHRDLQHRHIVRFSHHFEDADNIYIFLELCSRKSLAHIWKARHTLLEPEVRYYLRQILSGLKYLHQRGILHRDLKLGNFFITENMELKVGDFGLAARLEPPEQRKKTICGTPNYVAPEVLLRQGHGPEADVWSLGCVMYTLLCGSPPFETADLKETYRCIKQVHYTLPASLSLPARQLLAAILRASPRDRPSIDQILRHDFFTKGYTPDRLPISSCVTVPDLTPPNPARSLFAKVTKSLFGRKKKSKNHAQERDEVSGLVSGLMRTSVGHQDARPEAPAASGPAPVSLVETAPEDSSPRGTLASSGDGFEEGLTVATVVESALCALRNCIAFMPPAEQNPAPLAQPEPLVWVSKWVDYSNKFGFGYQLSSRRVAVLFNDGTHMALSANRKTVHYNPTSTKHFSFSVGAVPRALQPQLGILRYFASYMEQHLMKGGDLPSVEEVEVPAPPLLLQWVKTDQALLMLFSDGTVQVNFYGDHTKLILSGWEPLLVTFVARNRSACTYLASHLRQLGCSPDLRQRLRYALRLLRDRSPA
# PROCEDURE DETAILS: KINOMEscan competition binding
# EXPERIMENTAL PARAMETERS: compound 10.0 µM
MEASURE: kinase still bound, per cent of control
Your answer should be a number followed by the unit of measure.

Reference set, count: 3
INSERT INTO results (compound, recorded_result) VALUES
  ('COc1cc(C(=O)NC2CCN(C)CC2)ccc1Nc1ncc2c(n1)N(C1CCCC1)C(C)CC(=O)N2C (centres undefined)', '0%'),
  ('CCC(=O)N1CCN(c2ccc(-n3c(=O)ccc4cnc5ccc(-c6cnc7ccccc7c6)cc5c43)cc2C(F)(F)F)CC1', '87%'),
  ('O=C(O)c1ccc(Nc2ncc3c(n2)-c2ccc(Cl)cc2C(c2c(F)cccc2F)=NC3)cc1', '18%');

Read the next record carefully.
Ask: Read off the recorded kinase still bound, per cent of control for COc1cc(C(=O)NC2CCN(C)CC2)ccc1Nc1ncc2c(n1)N(C1CCCC1)CCC(=O)N2C(C)C
Reply: 100%

These data points were gathered from the kinase profiling compilation of Christmann-Franck et al. (2016).
